# System: RXF 393 renal
# experiment_summary: NCI tumour cell line growth inhibition, 48 h
# TGI annotations
property_label: TGI

>>> result_value("CN(C)/C=N/S(=O)(=O)c1nn2c(C=O)c(-c3cc4ccccc4oc3=O)nc2s1")
"9.97 µM"
>>> result_value("COc1cc(C)cc(OC)c1/C=C/C(=O)O")
"> 100 µM"
>>> result_value("O=C(NC(CO)CO)c1ccc2cc(C(=O)N3CC(CCl)c4ccc([N+](=O)[O-])cc43)[nH]c2c1 (configuration not stated)")
"> 100 µM"
>>> result_value("COc1cc([C@@H]2c3cc4c(cc3[C@@H](Nc3ccc(NC(=O)c5cc(NC(=O)c6cc([N+](=O)[O-])cn6C)cn5C)cc3)[C@H]3COC(=O)[C@H]23)OCO4)cc(OC)c1O")
"> 62.3 µM"
>>> result_value("CC1=C(c2cc(C(=O)Nc3cccc(C(F)(F)F)c3)nc(NC#N)n2)Sc2ccccc2N1")
"> 100 µM"
>>> result_value("O=c1cc2cc(O)[nH]c(=O)c2c(O)[nH]1")
"> 100 µM"
>>> result_value("Cc1ccnc2sc3ccccc3c(=O)c12")
"> 100 µM"
>>> result_value("CCCC1C(C#N)(C#N)C(C#N)=C(N)C1(C)C(C)=O (configuration not stated)")
"> 100 µM"
>>> result_value("CCOC(=O)CCC(NC(=O)c1ccc(NCc2ccc3nc(-c4ccccc4)c(Cl)nc3c2)c2ccccc12)C(=O)OCC (configuration not stated)")
"> 100 µM"
>>> result_value("COc1cc(C2c3cc4c(cc3OC(N3CCOCC3)C2C)OCO4)cc(OC)c1OC(C)=O (configuration not stated)")
"> 62.1 µM"
>>> result_value("Clc1cccc(N=C/C=C/Nc2cccc(Cl)c2)c1")
"52.5 µM"
>>> result_value("Clc1ccc(Nc2nc3ccccc3c3occc23)cc1")
"16.9 µM"
>>> result_value("O=C(Nc1ccccc1F)c1ccc(NC2=C(Cl)C(=O)N(Cc3ccccc3)C2=O)cc1")
"16.6 µM"
>>> result_value("O=[N+]([O-])c1cc(Cl)ccc1S(=O)(=O)c1cc(Cl)cc2c1NCCC2")
"> 100 µM"
>>> result_value("Nc1c(O)c(S(=O)(=O)O)c(O)c2c1C(=O)c1ccccc1C2=O")
"> 100 µM"
>>> result_value("CCCCc1nc2cc(/C=C/C(=O)NO)ccc2n1CCN(CC)CC")
"0.789 µM"
>>> result_value("CCc1nc(N)nc(N)c1-c1ccc(Cl)c(N=NN(C)C)c1")
"> 100 µM"

---

TGI values for the compounds below.
# Test system: 786-0 renal
# experiment_summary: NCI tumour cell line growth inhibition, 48 h
property_label: TGI

>>> result_value("Cc1nc2ccccc2cc1C[N+]12CN3CN(CN(C3)C1)C2")
"37.8 µM"
>>> result_value("NC(=S)N/N=C(\\C(=O)Nc1ccc(Cl)c(Cl)c1)C1=NN(c2ccccc2)C(c2cccc([N+](=O)[O-])c2)CC1=O (stereo not drawn)")
"36.8 µM"
>>> result_value("C/C(=N\\NC(=O)N/N=C(\\C)c1ccccn1)c1ccccn1")
"> 51.5 µM"
>>> result_value("COc1cccc(/C=N/n2c(Cc3ccc(Cl)cc3)n[nH]c2=O)c1")
"> 71.9 µM"
>>> result_value("C=C(COC(=O)C(C)C)[C@H]1Oc2ccc(C(C)=O)cc2[C@@H]1OC(=O)C(C)C")
"> 100 µM"
>>> result_value("CN1CCN(c2c(O)c3c(c(O)c2Cl)C(=O)C=CC3=O)CC1")
"0.718 µM"
>>> result_value("Cc1oc2c(C)c3oc(=O)cc(C)c3cc2c1CN")
"> 100 µM"
>>> result_value("COc1cc(C2c3cc4c(cc3OC(N3CCOCC3)C2C)OCO4)cc(OC)c1OC(C)=O (stereo not drawn)")
"> 100 µM"
